I'd appreciate it if you could supply HR repair efficiency (log10) values for the items below.
- Tested on: CLZ3 (HCA2 human fibroblast dual HR-NHEJ reporter);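 note: compound given one day before doxycycline, which switches on I-SceI endonuclease expression to create double-strand breaks within the integrated reporter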
- TEST_NAME: HR repair efficiency (tdTomato+ cells) relative to control (log10 fold); higher = more homologous recombination
- TEST_CONDITIONS: 5 µM; doxycycline 0.5 ug/mL
Please give the numeric answer without any surrounding text.

Query: What is its HR repair efficiency (log10) for CLZ3 (HCA2 human fibroblast dual HR-NHEJ reporter)? Entry: O=C(/C=C/c1ccc(O)c(O)c1)OC1(C(=O)O)C[C@@H](O)C(O)[C@H](O)C1 (some centres undefined) [1-Caffeoylquinic Acid]
Response: 0.0171

Query: What is its HR repair efficiency (log10) for CLZ3 (HCA2 human fibroblast dual HR-NHEJ reporter)? Entry: CC(C)(O[C@@H]1O[C@H](CO)[C@@H](O)[C@H](O)[C@H]1O)[C@H]1Cc2cc3ccc(=O)oc3cc2O1 [Nodakenin]
Response: 0.0112

Query: What is its HR repair efficiency (log10) for CLZ3 (HCA2 human fibroblast dual HR-NHEJ reporter)? Entry: C=C1C[C@]2(O)O[C@@]3(CC2=C(C)C)[C@@H](C)CC[C@@H]13 [Isocurcumenol]
Response: -0.239

Query: What is its HR repair efficiency (log10) for CLZ3 (HCA2 human fibroblast dual HR-NHEJ reporter)? Entry: CC1(C)CC[C@]2(C(=O)O)CCC3=C([C@@H](CCl)C[C@@H]4[C@@]5(C)C[C@H](O)[C@H](O)[C@@](C)(C(=O)O)[C@@H]5CC[C@@]34C)[C@@H]2C1 [Senegenin]
Response: -0.031
